Record form. Attribute: Total Cell Count. Fill in for each entry.
system: Fibroblast; experiment: Multiplex assay against human fibroblast; format: toxicity, cell-based; conditions: 24 h, 10 µM, compound concentration 10 uM, replicate 1
Numbers only.

Some compounds with known Total Cell Count results, for comparison:
Compound | Total Cell Count
CNC(=O)Nc1ccc2c(c1)[C@@]1(CC2)OC(=O)N(CC(=O)N(Cc2ccc(F)cc2)[C@@H](C)C(F)(F)F)C1=O [A-486] | 177
CCc1ccc(OCc2ccccc2C(=O)Nc2ccc3nc(C)cc(N)c3c2)cc1.Cl | 155
O=C(c1cc2c(cc1F)OC(c1ccc(F)cc1)(c1ccc(Cl)cc1Cl)O2)N1CCOCC1 (centres undefined) | 169

Consider now this further compound.
Query: # Total Cell Count lookup, item C=CC(=O)Nc1cccc(Oc2nc(Nc3ccc(N4CCN(C)CC4)cc3OC)ncc2Cl)c1
Response: 231

----------
tested on: U2OS; test: Multiplex assay against U2OS; type: toxicity, cell-based; conditions: human, 24 h, 1 µM, compound concentration 1 uM, replicate 1
Assay Metric: Population Normal (%)
Answers are plain numbers, in %.

Some molecules with known Population Normal (%) results, for comparison:
Molecule | Population Normal (%)
COc1ccc(-c2ccc3ncc4c(c3c2)n(-c2ccc(N3CCNCC3)c(C(F)(F)F)c2)c(=O)n4C)cn1.O=C(O)/C=C\C(=O)O [BGT-226] | 85
O=c1cc(N2CCOCC2)oc2c(-c3cccc4c3sc3ccccc34)cccc12 | 92
CC(C)(C)NC[C@H](O)COc1nsnc1N1CCOCC1 [TIMOLOL] | 95
CNC(=O)Nc1ccc(-c2nc(N3CC4CCC(C3)O4)c3cnn(C4CCC5(CC4)OCCO5)c3n2)cc1 | 80

Query: # Population Normal (%) lookup, item Cc1ccc2c(c1)c1c(n2CCc2ccc(C)nc2)CCN(C)C1 [LATREPIRDINE]
Response: 96

----------
system: U2OS; assay: Multiplex assay against U2OS; type: toxicity, cell-based; conditions: human, 48 h, 10 µM, compound concentration 10 uM, replicate 1
Assay Metric: Population Mitotic Cells (%)
Numbers only, in %.

Molecule | Assay Value
C[C@]12CC[C@@H]3c4ccc(O)cc4CC[C@H]3[C@@H]1CC[C@@H]2O | 65
O=C(c1cc2c(cc1F)OC(c1ccc(F)cc1)(c1ccc(Cl)cc1Cl)O2)N1CCOCC1 (stereo not drawn) | 42
Cc1ccc2c(c1)c1c(n2CCc2ccc(C)nc2)CCN(C)C1 [LATREPIRDINE] | 35
CCc1ccc(OCc2ccccc2C(=O)Nc2ccc3nc(C)cc(N)c3c2)cc1.Cl | 16
CCc1nn(CCCN2CCN(c3cccc(Cl)c3)CC2)c(=O)n1CCOc1ccccc1.Cl [NEFAZODONE HYDROCHLORIDE] | 17

Each of the following entries comes with a recorded value; kindly state Population Mitotic Cells (%) for each.
1. Cc1ccc(C)c(Oc2ccncc2C(=O)N2CCN(C3CC3)c3ccccc32)c1
2. O=c1cc(N2CCOCC2)oc2c(-c3cccc4c3sc3ccccc34)cccc12
3. COC(=O)C1=C(C)NC(C)=C(C(=O)OCCCN2CCC(c3ccccc3)(c3ccccc3)CC2)[C@H]1c1cccc([N+](=O)[O-])c1

Response:
38
19
18

----------
test system: HEK-293T; assay: Incucyte cell viability with HEK293T; assay type: toxicity, cell-based; settings: human, 18 h, 10 µM, compound concentration 10 uM, replicate number 1, timepoint 18 hours; note: filed as whole numbers so only -1 and 0 and 1 occur
Record form. Attribute: Growth Rate. Fill in for each entry.
Answers are plain numbers.

Some compounds with known Growth Rate results, for comparison:
Smiles | Growth Rate
C=CC(=O)Nc1cccc(Oc2nc(Nc3ccc(N4CCN(C)CC4)cc3OC)ncc2Cl)c1 | 0
CC1CCN(CC[C@H]2CCCN2S(=O)(=O)c2cccc(O)c2)CC1.Cl | 1
C[C@H](N)COC(=O)[C@@H](CCCCN)NC(=O)Cc1c(-c2ccc3ccccc3c2)[nH]c2c1ccc1ccccc12 | 1
Nc1ncnc2c1ccn2[C@@H]1O[C@H]([C@H](O)c2ccccc2)[C@@H](O)[C@H]1O | 1
O=c1cc(N2CCOCC2)oc2c(-c3cccc4c3sc3ccccc34)cccc12 | 0
COc1ccc(-c2ccc3ncc4c(c3c2)n(-c2ccc(N3CCNCC3)c(C(F)(F)F)c2)c(=O)n4C)cn1.O=C(O)/C=C\C(=O)O | 0

Each of the following entries comes with a recorded value; kindly state Growth Rate for each.
1. CN(c1ccccc1CNc1nc(Nc2ccc3c(c2)CC(=O)N3)ncc1C(F)(F)F)S(C)(=O)=O
2. CN1CCN(Cc2ccc(Nc3ncc(Cl)c(Nc4ccccc4S(=O)(=O)N(C)C)n3)cc2)CC1

Response:
1. 0
2. 0
